meta.source: patent US8481501B2

- Assay System: kappa opioid receptor (Homo sapiens)
- Sequence (P41145 whole entry): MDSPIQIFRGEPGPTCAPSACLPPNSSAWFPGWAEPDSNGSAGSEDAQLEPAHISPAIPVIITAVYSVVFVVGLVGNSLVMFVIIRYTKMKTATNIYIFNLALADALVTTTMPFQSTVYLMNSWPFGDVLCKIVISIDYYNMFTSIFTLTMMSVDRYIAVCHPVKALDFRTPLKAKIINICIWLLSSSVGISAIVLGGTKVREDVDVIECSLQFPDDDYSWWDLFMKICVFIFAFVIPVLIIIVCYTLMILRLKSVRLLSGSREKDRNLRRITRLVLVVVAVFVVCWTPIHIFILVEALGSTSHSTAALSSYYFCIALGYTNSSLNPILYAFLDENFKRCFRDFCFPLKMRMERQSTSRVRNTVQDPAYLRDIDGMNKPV
- Measurement Protocol: biochemical
- Type: binding
- Set-up: expressed in transfected cells; host or cells: transfected cells
- Run Parameters: Table 1; read-out: Ki κ
Parameter Measured: Ki

Examples with answers:
{"columns": ["Compound", "Ki"],
 "data": [
  ["COC(=O)[C@H]1OC(CC(=O)NC2C=CC3C4Cc5ccc(OC)c6c5C3(CCN4C)C2O6)[C@H](OC(C)=O)[C@@H](OC(C)=O)[C@@H]1OC(C)=O (stereo partly drawn)", "499 nM"],
  ["CC(=O)OC[C@H]1OC(SC2C=CC3C4Cc5ccc(OC(C)=O)c6c5C3(CCN4C)C2O6)[C@H](OC(C)=O)[C@@H](OC(C)=O)[C@@H]1OC(C)=O (stereo partly drawn)", "1390 nM"],
  ["COc1ccc2c3c1OC1C(SC4O[C@H](CO)[C@@H](O)[C@H](O)[C@H]4O)C=CC4C(C2)N(C)CCC341 (stereo partly drawn)", "2480 nM"],
  ["COc1cccc(CC(=O)NC2C=CC3C4Cc5ccc(O)c6c5C3(CCN4C)C2O6)c1 (stereo not drawn) [13a, 6β-(3-Methoxyphenyl)acetamidomorphine]", "0.96 nM"],
  ["COc1ccc(CC(=O)NC2C=CC3C4Cc5ccc(O)c6c5C3(CCN4C)C2O6)cc1 (stereo not drawn) [13b, 6β-(4-Methoxyphenyl)acetamidomorphine]", "2.84 nM"]
]}

Query :: Fill in the blank: the reported Ki of CN1CCC23c4c5ccc(O)c4OC2C(NC(=O)Cc2cccs2)C=CC3C1C5 (stereo not drawn) [13h, 6β-(Thiophen-2′-yl)acetamidomorphine] is ____.
Result :: 0.58 nM
